Biological target: CXCR4 (Homo sapiens, UniProt P61073)
Construct: purchased Promega (in-house HiBiT-GPCR construct library, NanoBRET)
Sequence (P61073 whole entry): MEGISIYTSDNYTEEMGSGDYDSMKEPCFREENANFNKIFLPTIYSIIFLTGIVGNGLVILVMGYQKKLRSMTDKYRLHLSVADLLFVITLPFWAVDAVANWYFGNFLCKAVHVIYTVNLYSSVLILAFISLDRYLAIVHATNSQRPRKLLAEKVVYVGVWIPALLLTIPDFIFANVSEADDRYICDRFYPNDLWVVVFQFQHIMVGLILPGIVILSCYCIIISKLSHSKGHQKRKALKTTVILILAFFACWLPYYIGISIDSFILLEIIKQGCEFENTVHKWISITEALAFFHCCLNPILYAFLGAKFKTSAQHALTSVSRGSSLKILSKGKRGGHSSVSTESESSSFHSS
Test: NanoBRET screen HiBiT-CXCR4 in HEK293
Format: binding
Conditions: CXCR4; tracer 0.1μM
METRIC: NanoBRET Fold Response
Enter the number alone.

CCCn1c(=O)c2[nH]c(-c3ccc(OCC(=O)NCCNC(=O)CCOCCNC(=O)c4ccc(CNC(=O)CCc5ccc6n5[B-](F)(F)[N+]5=C(c7ccc[nH]7)C=CC5=C6)cc4)cc3)nc2n(CCC)c1=O [XAC-3-NB590]: 0.90
COc1ccccc1N1CCN(CCCCN2C(=O)c3ccc(CNC(=O)CCOCCNC(=O)c4ccc(CNC(=O)CCc5ccc6n5[B-](F)(F)[N+]5=C(c7ccc[nH]7)C=CC5=C6)cc4)cc3C2=O)CC1 [NAN-190-3-NB590]: 1.24
O=C(CCc1ccc2n1[B-](F)(F)[N+]1=C(c3ccc[nH]3)C=CC1=C2)NCc1ccc(C(=O)NCCOCCC(=O)N[C@@H]2CC[C@@]3(O)[C@H]4Cc5ccc(O)c6c5[C@@]3(CCN4CC3CC3)[C@H]2O6)cc1 [Naltrexone-3-NB590]: 1.30
O=C(CCOCCOCCOCCOCCNC(=O)CCc1ccc2n1[B-](F)(F)[N+]1=C(c3ccc[nH]3)C=CC1=C2)NCCCN1CCN(C2=Nc3ccccc3Oc3ccc(Cl)cc32)CC1 [Loxapine-a-2-NB590]: 1.03

Below: the item to evaluate.
Given the compound CC(C)N(CC[C@H](c1ccccc1)c1cc(CCNC(=O)CCOCCOCCOCCOCCNC(=O)CCc2ccc3n2[B-](F)(F)[N+]2=C(c4ccc[nH]4)C=CC2=C3)ccc1O)C(C)C [Tolterodine-2-NB590] , write its reported NanoBRET Fold Response.
0.88

====

Target: CCKAR (Homo sapiens, UniProt P32238)
Construct: purchased Promega (in-house HiBiT-GPCR construct library, NanoBRET)
Sequence (P32238 whole entry): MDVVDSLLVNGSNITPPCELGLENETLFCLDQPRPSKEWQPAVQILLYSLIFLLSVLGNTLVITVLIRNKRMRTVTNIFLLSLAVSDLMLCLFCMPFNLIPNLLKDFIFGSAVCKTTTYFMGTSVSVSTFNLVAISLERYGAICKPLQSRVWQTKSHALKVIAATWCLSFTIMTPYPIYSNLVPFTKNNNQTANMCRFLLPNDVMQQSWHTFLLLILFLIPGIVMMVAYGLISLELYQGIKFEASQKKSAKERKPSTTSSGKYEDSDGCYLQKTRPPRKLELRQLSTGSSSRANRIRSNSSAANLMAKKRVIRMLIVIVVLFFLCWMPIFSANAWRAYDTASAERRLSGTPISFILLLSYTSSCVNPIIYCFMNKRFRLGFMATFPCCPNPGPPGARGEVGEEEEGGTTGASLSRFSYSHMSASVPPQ
Experiment: NanoBRET screen HiBiT-CCKAR in HEK293
Format: binding
Conditions: CCKAR; tracer 1μM
METRIC: NanoBRET Fold Response
I'd appreciate a reply containing only the number, no unit.

N#CN=C(NCCCOc1cccc(CN2CCCCC2)c1)NCCNC(=O)CCOCCOCCOCCOCCNC(=O)CCc1ccc2n1[B-](F)(F)[N+]1=C(c3ccc[nH]3)C=CC1=C2: 1.04
COc1ccccc1N1CCN(CCCCN2C(=O)c3ccc(CNC(=O)CCOCCOCCOCCOCCNC(=O)CCc4ccc5n4[B-](F)(F)[N+]4=C(c6ccc[nH]6)C=CC4=C5)cc3C2=O)CC1: 0.96
O=C(CCc1ccc2n1[B-](F)(F)[N+]1=C(c3ccc[nH]3)C=CC1=C2)NCCOCCOCCNC(=O)OCCOCCN1CCN(C2=Nc3ccccc3Sc3ccccc32)CC1: 0.94

Answer with NanoBRET Fold Response of O=C(CCc1ccc2n1[B-](F)(F)[N+]1=C(c3ccc[nH]3)C=CC1=C2)NCc1ccc(C(=O)NCCOCCC(=O)N[C@@H]2CC[C@@]3(O)[C@H]4Cc5ccc(O)c6c5[C@@]3(CCN4CC3CC3)[C@H]2O6)cc1 [Naltrexone-3-NB590] measured for CCKAR (Homo sapiens, UniProt P32238).
1.05

Write down measured NanoBRET Fold Response (CCKAR (Homo sapiens, UniProt P32238)) for this molecule. CCCn1c(=O)c2[nH]c(-c3ccc(OCC(=O)NCCNC(=O)CCOCCNC(=O)c4ccc(CNC(=O)CCc5ccc6n5[B-](F)(F)[N+]5=C(c7ccc[nH]7)C=CC5=C6)cc4)cc3)nc2n(CCC)c1=O
1.01

Fill in: NanoBRET Fold Response on CCKAR (Homo sapiens, UniProt P32238), entry COc1ccccc1N1CCN(CCCCN2C(=O)c3ccc(CNC(=O)CCOCCNC(=O)c4ccc(CNC(=O)CCc5ccc6n5[B-](F)(F)[N+]5=C(c7ccc[nH]7)C=CC5=C6)cc4)cc3C2=O)CC1
0.99

Specify NanoBRET Fold Response for Cc1cc2c(s1)Nc1ccccc1N=C2N1CCN(CCCNC(=O)CCOCCOCCOCCOCCNC(=O)CCc2ccc3n2[B-](F)(F)[N+]2=C(c4ccc[nH]4)C=CC2=C3)CC1 , system CCKAR (Homo sapiens, UniProt P32238).
1.04

Under CCKAR (Homo sapiens, UniProt P32238), report NanoBRET Fold Response for CC(C)N(CC[C@H](c1ccccc1)c1cc(CCNC(=O)c2ccc(CNC(=O)CCc3ccc4n3[B-](F)(F)[N+]3=C(c5ccc[nH]5)C=CC3=C4)cc2)ccc1O)C(C)C
1.03

====

Target: CHRM5 (Homo sapiens)
Construct: purchased Promega (in-house HiBiT-GPCR construct library, NanoBRET)
Sequence (P08912 whole entry): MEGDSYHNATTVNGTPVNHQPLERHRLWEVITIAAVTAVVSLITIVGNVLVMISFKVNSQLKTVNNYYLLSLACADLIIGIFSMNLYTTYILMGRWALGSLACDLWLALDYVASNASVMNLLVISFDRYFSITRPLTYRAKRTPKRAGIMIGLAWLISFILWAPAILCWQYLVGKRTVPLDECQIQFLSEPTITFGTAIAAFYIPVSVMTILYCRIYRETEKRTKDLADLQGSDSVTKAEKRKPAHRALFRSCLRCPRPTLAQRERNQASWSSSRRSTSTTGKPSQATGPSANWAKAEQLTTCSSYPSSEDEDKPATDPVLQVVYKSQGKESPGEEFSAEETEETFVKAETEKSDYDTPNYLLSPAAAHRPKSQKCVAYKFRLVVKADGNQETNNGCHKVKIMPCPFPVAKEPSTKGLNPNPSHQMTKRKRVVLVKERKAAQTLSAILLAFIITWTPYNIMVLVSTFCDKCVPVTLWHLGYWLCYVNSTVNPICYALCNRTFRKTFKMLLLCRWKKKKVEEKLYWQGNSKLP
Test: NanoBRET screen HiBiT-CHRM5 in HEK293
Type: binding
Conditions: CHRM5; tracer 0.1μM
Known NanoBRET Fold Response of a selection of compounds
// print number alone

COc1ccccc1N1CCN(CCCCN2C(=O)c3ccc(CNC(=O)CCOCCNC(=O)c4ccc(CNC(=O)CCc5ccc6n5[B-](F)(F)[N+]5=C(c7ccc[nH]7)C=CC5=C6)cc4)cc3C2=O)CC1: 1.00
CC(C)N(CC[C@H](c1ccccc1)c1cc(CCNC(=O)CCOCCOCCOCCOCCNC(=O)CCc2ccc3n2[B-](F)(F)[N+]2=C(c4ccc[nH]4)C=CC2=C3)ccc1O)C(C)C: 3.27
COc1ccccc1N1CCN(CCCCN2C(=O)c3ccc(CNC(=O)CCOCCOCCOCCOCCNC(=O)CCc4ccc5n4[B-](F)(F)[N+]4=C(c6ccc[nH]6)C=CC4=C5)cc3C2=O)CC1: 0.90
Cc1nc2n(c(=O)c1CCN1CCC(c3noc4cc(F)ccc34)CC1)CCCC2OC(=O)NCCOCCOCCOCCOCCNC(=O)CCc1ccc2n1[B-](F)(F)[N+]1=C(c3ccc[nH]3)C=CC1=C2 (centres unmarked): 1.07
Cc1cc2c(s1)Nc1ccccc1N=C2N1CCN(CCCNC(=O)CCOCCOCCOCCOCCNC(=O)CCc2ccc3n2[B-](F)(F)[N+]2=C(c4ccc[nH]4)C=CC2=C3)CC1: 1.05
O=C(CCc1ccc2n1[B-](F)(F)[N+]1=C(c3ccc[nH]3)C=CC1=C2)NCc1ccc(C(=O)NCCOCCC(=O)N[C@@H]2CC[C@@]3(O)[C@H]4Cc5ccc(O)c6c5[C@@]3(CCN4CC3CC3)[C@H]2O6)cc1 [Naltrexone-3-NB590]: 1.18
N#CN=C(NCCCOc1cccc(CN2CCCCC2)c1)NCCNC(=O)CCOCCOCCOCCOCCNC(=O)CCc1ccc2n1[B-](F)(F)[N+]1=C(c3ccc[nH]3)C=CC1=C2: 1.02
O=C(CCOCCOCCOCCOCCNC(=O)CCc1ccc2n1[B-](F)(F)[N+]1=C(c3ccc[nH]3)C=CC1=C2)NCCCN1CCN(C2=Nc3ccccc3Oc3ccc(Cl)cc32)CC1: 0.99
O=C(CCc1ccc2n1[B-](F)(F)[N+]1=C(c3ccc[nH]3)C=CC1=C2)NCCOCCOCCNC(=O)OCCOCCN1CCN(C2=Nc3ccccc3Sc3ccccc32)CC1: 1.18
CCCn1c(=O)c2[nH]c(-c3ccc(OCC(=O)NCCNC(=O)CCOCCNC(=O)c4ccc(CNC(=O)CCc5ccc6n5[B-](F)(F)[N+]5=C(c7ccc[nH]7)C=CC5=C6)cc4)cc3)nc2n(CCC)c1=O: 0.98

The record that follows has no NanoBRET Fold Response shown yet.
Given CC(C)N(CC[C@H](c1ccccc1)c1cc(CCNC(=O)c2ccc(CNC(=O)CCc3ccc4n3[B-](F)(F)[N+]3=C(c5ccc[nH]5)C=CC3=C4)cc2)ccc1O)C(C)C , report its NanoBRET Fold Response on CHRM5 (Homo sapiens).
2.88

====

Biological target: ADRB2 (Homo sapiens, UniProt P07550)
Construct: purchased Promega (in-house HiBiT-GPCR construct library, NanoBRET)
Sequence (P07550 whole entry): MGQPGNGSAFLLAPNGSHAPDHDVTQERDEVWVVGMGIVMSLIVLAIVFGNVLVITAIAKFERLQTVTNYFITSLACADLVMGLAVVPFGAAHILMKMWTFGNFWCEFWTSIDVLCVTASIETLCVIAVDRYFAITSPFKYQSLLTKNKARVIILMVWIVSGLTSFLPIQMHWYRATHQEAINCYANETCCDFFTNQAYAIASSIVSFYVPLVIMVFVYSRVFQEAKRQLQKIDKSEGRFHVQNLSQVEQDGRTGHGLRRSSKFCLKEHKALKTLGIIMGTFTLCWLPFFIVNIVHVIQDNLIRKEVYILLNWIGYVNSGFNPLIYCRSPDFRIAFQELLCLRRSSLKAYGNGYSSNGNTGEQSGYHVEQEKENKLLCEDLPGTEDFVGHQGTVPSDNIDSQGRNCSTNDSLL
Experiment: NanoBRET screen HiBiT-ADRB2 in HEK293
Assay type: binding
Conditions: ADRB2; tracer 0.1μM
Procedure: Each tracer candidate was screened across the entire library of HiBiT-GPCR constructs using NanoBRET as the detection modality. As depicted in Figure 4A, the specificity of interactions was evaluated through decrease in BRET due to competitive displacement of a bound tracer by excess parental compound. Each tracer was analyzed for binding to each HiBiT-GPCR fusion in the absence and in the presence of competing parental compound. […]
METRIC: NanoBRET Fold Response
The reply should be a number, written without any unit.

// solved cases for NanoBRET Fold Response follow
COc1ccccc1N1CCN(CCCCN2C(=O)c3ccc(CNC(=O)CCOCCNC(=O)c4ccc(CNC(=O)CCc5ccc6n5[B-](F)(F)[N+]5=C(c7ccc[nH]7)C=CC5=C6)cc4)cc3C2=O)CC1 [NAN-190-3-NB590]: 1.00
N#CN=C(NCCCOc1cccc(CN2CCCCC2)c1)NCCNC(=O)CCOCCOCCOCCOCCNC(=O)CCc1ccc2n1[B-](F)(F)[N+]1=C(c3ccc[nH]3)C=CC1=C2 [Aminopotentidine-2-NB590]: 1.05
Cc1nc2n(c(=O)c1CCN1CCC(c3noc4cc(F)ccc34)CC1)CCCC2OC(=O)NCCOCCOCCOCCOCCNC(=O)CCc1ccc2n1[B-](F)(F)[N+]1=C(c3ccc[nH]3)C=CC1=C2 (centres unmarked) [Risperidone-2-NB590]: 0.97
CCCn1c(=O)c2[nH]c(-c3ccc(OCC(=O)NCCNC(=O)CCOCCNC(=O)c4ccc(CNC(=O)CCc5ccc6n5[B-](F)(F)[N+]5=C(c7ccc[nH]7)C=CC5=C6)cc4)cc3)nc2n(CCC)c1=O [XAC-3-NB590]: 1.04
O=C(CCc1ccc2n1[B-](F)(F)[N+]1=C(c3ccc[nH]3)C=CC1=C2)NCc1ccc(C(=O)NCCOCCC(=O)N[C@@H]2CC[C@@]3(O)[C@H]4Cc5ccc(O)c6c5[C@@]3(CCN4CC3CC3)[C@H]2O6)cc1 [Naltrexone-3-NB590]: 1.36
Cc1cc2c(s1)Nc1ccccc1N=C2N1CCN(CCCNC(=O)CCOCCOCCOCCOCCNC(=O)CCc2ccc3n2[B-](F)(F)[N+]2=C(c4ccc[nH]4)C=CC2=C3)CC1 [Olanzapine-a-2-NB590]: 1.01
CC(C)N(CC[C@H](c1ccccc1)c1cc(CCNC(=O)CCOCCOCCOCCOCCNC(=O)CCc2ccc3n2[B-](F)(F)[N+]2=C(c4ccc[nH]4)C=CC2=C3)ccc1O)C(C)C [Tolterodine-2-NB590]: 0.93
O=C(CCOCCOCCOCCOCCNC(=O)CCc1ccc2n1[B-](F)(F)[N+]1=C(c3ccc[nH]3)C=CC1=C2)NCCCN1CCN(C2=Nc3ccccc3Oc3ccc(Cl)cc32)CC1 [Loxapine-a-2-NB590]: 1.06

Complete the entry with NanoBRET Fold Response for COc1ccccc1N1CCN(CCCCN2C(=O)c3ccc(CNC(=O)CCOCCOCCOCCOCCNC(=O)CCc4ccc5n4[B-](F)(F)[N+]4=C(c6ccc[nH]6)C=CC4=C5)cc3C2=O)CC1 [NAN-190-2-NB590]
1.25

Quick one: give measured NanoBRET Fold Response for O=C(CCc1ccc2n1[B-](F)(F)[N+]1=C(c3ccc[nH]3)C=CC1=C2)NCCOCCOCCNC(=O)OCCOCCN1CCN(C2=Nc3ccccc3Sc3ccccc32)CC1 [Quetiapine-a-2-NB590]
1.13

Return the recorded NanoBRET Fold Response value; entry: CC(C)N(CC[C@H](c1ccccc1)c1cc(CCNC(=O)c2ccc(CNC(=O)CCc3ccc4n3[B-](F)(F)[N+]3=C(c5ccc[nH]5)C=CC3=C4)cc2)ccc1O)C(C)C [Tolterodine-BZ-NB590]
1.04
